Provenance of the data: patent US9718819B2

Kindly state IC50 for each of the entries shown.
# TARGET_SYSTEM: HIV-1 RT wild-type enzyme (Human immunodeficiency virus type 1 group M subtype B (isolate HXB2) (HIV-1), UniProt P04585)
# EXPERIMENT_DESCRIPTION: HIV-1 reverse transcriptase inhibitory activity (RT polymerase assay)
# Format: biochemical
# ASSAY_CONDITIONS: HIV-1 RT wild-type enzyme 83 pM; RNA-dependent DNA polymerase activity; read-out: IC50
One number for each entry, in nM.

N#Cc1cc(Cl)cc(Oc2c(C(F)(F)F)ncn(Cc3ccc(=O)[nH]n3)c2=O)c1Cl ... 5
N#Cc1cc(Cl)cc(Oc2c(C(F)(F)F)ncn(Cc3cc(-n4cccn4)c(=O)[nH]n3)c2=O)c1 ... 11
Cc1ncn(Cc2cc(C(F)F)n[nH]c2=O)c(=O)c1Oc1cc(Cl)cc(C#N)c1 ... 6
CC(F)(F)c1cc(Cn2cnc(C(F)(F)F)c(Oc3cccc(C#N)c3F)c2=O)c(=O)[nH]n1 ... 9
N#Cc1cc(Cl)cc(Oc2c(OC(F)F)ncn(Cc3cc(-c4ccc(F)cc4)c(=O)[nH]n3)c2=O)c1 ... 3
N#Cc1cc(Cl)cc(Oc2c(C(F)(F)F)ncn(Cc3cc(-c4cc(F)c(F)c(F)c4)c(=O)[nH]n3)c2=O)c1 ... 11

Now take the following compound into account.
Ask | I'd like to know its IC50. The compound in question is N#Cc1cc(Cl)cc(Oc2c(C(F)(F)F)ncn(Cc3cc(-c4cncc(C#N)c4)c(=O)[nH]n3)c2=O)c1
Reply | 27

====

# TARGET_SYSTEM: HIV-1 RT wild-type enzyme (Human immunodeficiency virus type 1 group M subtype B (isolate HXB2) (HIV-1), UniProt P04585)
# EXPERIMENT_DESCRIPTION: HIV-1 reverse transcriptase inhibitory activity (RT polymerase assay)
# Assay type: biochemical
PROPERTY_LABEL: IC50 (nM)
Give bare numbers, in nM.

Ask | I'd like to know its IC50. The molecule in question is N#Cc1cc(Cl)cc(Oc2c(C(F)(F)F)ncn(Cc3cc(CO)c(=O)[nH]n3)c2=O)c1
Reply | 32

====

Kindly state IC50 for each of the entries shown.
# TARGET_SYSTEM: HIV-1 RT wild-type enzyme (Human immunodeficiency virus type 1 group M subtype B (isolate HXB2) (HIV-1), UniProt P04585)
# EXPERIMENT_DESCRIPTION: HIV-1 reverse transcriptase inhibitory activity (RT polymerase assay)
# Assay type: biochemical
# ASSAY_CONDITIONS: HIV-1 RT wild-type enzyme 83 pM; RNA-dependent DNA polymerase activity; read-out: IC50
Numbers only, in nM.

N#Cc1cc(Cl)cc(Oc2c(C(F)(F)F)ncn(Cc3cc(-c4ccc(F)cc4)n[nH]c3=O)c2=O)c1 [Example 112] ... 5
N#Cc1cc(Cl)cc(Oc2c(C(F)(F)F)ncn(Cc3cc(-c4ccc(OC(F)(F)F)cc4)n[nH]c3=O)c2=O)c1 [Example 116] ... 21

Please report IC50 for every entry that follows.
1. O=c1ccc(Cn2cnc(C(F)(F)F)c(Oc3cc(Cl)cc(C(F)(F)F)c3)c2=O)n[nH]1 [Example 21]
2. Cc1c(C#N)cc(F)cc1Oc1c(C(F)(F)F)ncn(Cc2cc(-c3ccc(F)cc3)c(=O)[nH]n2)c1=O [Example 168]

Reply |
29
5

Please report IC50 for every entry that follows.
1. N#Cc1cc(Cl)cc(Oc2c(C(F)(F)F)ncn(Cc3cc(-c4cccnc4F)c(=O)[nH]n3)c2=O)c1 [Example 87]
2. CC(F)(F)c1cc(Cn2cnc(C(C)(F)F)c(Oc3cccc(C#N)c3F)c2=O)c(=O)[nH]n1 [Example 182]
3. N#Cc1cc(Oc2c(C(F)(F)F)ncn(Cc3ccc(=O)[nH]n3)c2=O)cc(OC(F)F)c1 [Example 163]

Reply |
18
9
22
